TARGET_OR_TEST_SYSTEM: Rap guanine nucleotide exchange factor 3 (Homo sapiens)
PROTOCOL_NOTES: Confirmatory qHTS for agonist of cAMP-regulated guanine nucleotide exchange factor 3 (EPAC1) (AID 1645881);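 also: EPAC1 catalysed release of BODIPY-GDP from Rap1B seen as fluorescence loss; nearly all actives have a fitted effect of over 75% in size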
EXPERIMENTAL_SETUP: EPAC1 Rap1B BODIPY-GDP exchange fluorescence; series mostly up to 154 µM
Results filed as inconclusive are left out. Activity calls are given as the source filed them. Calls follow the shape of the dose curve; as a rule, active = well fitted activation curve with a large enough effect; inconclusive = small, poorly fitted or top-dose-only effect; inactive = no such curve, though single readings can be large or run the other way.
OBSERVED_PROPERTY: outcome

These solved cases illustrate the format of a correct answer.
query: Given the compound O=C(O)CC1OCC=C2CN3CCC45C6=CC(=O)C(=O)C([N+](=O)[O-])=C6NC4C1C2CC35 (centres undefined) , write its reported outcome.
result: inactive

query: Given the compound COc1ccc(N2C(=O)/C(=C/C=C/c3ccccc3[N+](=O)[O-])C(=O)NC2=S)cc1 , write its reported outcome.
result: inactive

query: Given the compound Cc1cc(/C=C2\C(=O)NC(=O)N(c3ccc(Cl)cc3)C2=O)c(C)n1-c1sc2c(c1C#N)CCCC2 , write its reported outcome.
result: inactive

query: Given the compound Cc1ccccc1-c1nc(CN2C(=O)CN=C(c3ccccc3)c3ccccc32)c(C)o1 , write its reported outcome.
result: inactive

query: Given the compound CCCCCC1C(=O)O[C@H](C)[C@@H](NC(=O)c2cccc(NC=O)c2O)C(=O)OC(C)C1OC(=O)CC(C)C (some centres undefined) , write its reported outcome.
result: inactive

query: Given the compound CCCNC1=C(C)C(=O)C2=C(C1=O)C(COC(N)=O)[C@]1(OC)C3NC3CN21 (some centres undefined) , write its reported outcome.
result: inactive

query: Given the compound Nc1c(C(=O)Nc2ccc(Br)cc2F)sc2nc3c(cc12)N1CCC3CC1 , write its reported outcome.
result: inactive

query: Given the compound COc1ccc(N2C(=O)NC(=O)/C(=C/c3ccc([N+](=O)[O-])s3)C2=O)cc1 , write its reported outcome.
result: inactive

Further cases:
query: Given the compound Clc1cc(Cl)c(-c2cc(Cl)c(Cl)cc2Cl)cc1Cl , write its reported outcome.
result: inactive

###

PROTOCOL_NOTES: Primary qHTS for Huh7 cytotoxicity: counterscreen for inhibitors of MERS-S pseudotyped particle cell entry (AID 1479147)
EXPERIMENTAL_SETUP: cell viability read-out; at 57.1 µM (top of the series) unless noted
Results filed as inconclusive are left out. Activity calls are given as the source filed them. Calls follow the shape of the full dose curve.
OBSERVED_PROPERTY: outcome

These solved cases illustrate the format of a correct answer.
query: Given the molecule NCCCC[C@H](N)C(=O)O , write its reported outcome.
result: inactive [at 0.573 µM]

query: Given the molecule Cc1cc2nc3c(=O)[nH]c(=O)nc-3n(C[C@@H](O)[C@@H](O)[C@@H](O)COP(=O)(O)O)c2cc1C , write its reported outcome.
result: inactive [at 11.4 µM]

query: Given the molecule CCC(=O)O[C@@H](OP(=O)(CCCCc1ccccc1)CC(=O)N1C[C@H](C2CCCCC2)C[C@H]1C(=O)O)C(C)C (stereo partly drawn) , write its reported outcome.
result: inactive [at 11.4 µM]

query: Given the molecule O=P(O)(O)C(O)(Cc1cnc2ccccn12)P(=O)(O)O , write its reported outcome.
result: inactive [at 0.573 µM]

query: Given the molecule C[N+](C)(C)CCOP(=O)([O-])OP(=O)(O)OC[C@H]1OC(n2ccc(N)nc2=O)[C@H](O)[C@@H]1O (stereo partly drawn) , write its reported outcome.
result: inactive [at 0.573 µM]

Hey, quick one: what's outcome for each of these?
1. C[C@@H](O)[C@H]1C(=O)N2C(C(=O)[O-])=C(SC3Cn4cnc[n+]4C3)[C@H](C)[C@H]12 (stereo partly drawn)
2. NC[C@@H]1O[C@H](O[C@H]2[C@@H](O)[C@H](O[C@@H]3[C@@H](O)[C@H](N)C[C@H](N)[C@H]3O[C@H]3O[C@H](CO)[C@@H](O)[C@H](O)[C@H]3N)O[C@@H]2CO)[C@H](N)[C@@H](O)[C@@H]1O

result:
1: inactive [at 11.4 µM]; 2: inactive [at 0.573 µM]

###

PROTOCOL_NOTES: Primary qHTS for inhibitors of SARS-S pseudo-typed particle cell entry (AID 1479145); also: nearly all actives have a fitted effect of over 45% in size
EXPERIMENTAL_SETUP: SARS-S pseudotyped particle cell entry, luciferase reporter; at 57.1 µM (top of the series) unless noted
Results filed as inconclusive are left out. Calls of active or inactive are those of the source. Calls come from the whole dose curve.
OBSERVED_PROPERTY: outcome

query: Given the compound Cc1ncc(C[n+]2csc(CCOP(=O)(O)OP(=O)(O)O)c2C)c(N)n1 , write its reported outcome.
result: inactive [at 0.573 µM]

query: Given the compound CCC(CC)[C@H](NC(C)=O)[C@@H]1[C@H](O)[C@@H](C(=O)O)C[C@H]1N=C(N)N , write its reported outcome.
result: inactive [at 0.573 µM]

query: Given the compound NCCCC[C@H](N)C(=O)O , write its reported outcome.
result: inactive [at 0.573 µM]

###

PROTOCOL_NOTES: qHTS for Inflammasome Signaling Inhibitors: IL-1-beta AlphaLISA screen against the NCATS CANVASS Library (AID 1347379);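 also: human THP-1 cells primed with LPS then triggered with ATP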;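 as to Potency: secreted IL-1B measured as AlphaLISA emission at 615 nm; potency is read from the fitted curve at half-maximal effect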
EXPERIMENTAL_SETUP: THP-1 LPS/ATP, IL-1B AlphaLISA secretion, 16 h; series mostly up to 57.5 µM
Records with an inconclusive call do not appear. Calls of active or inactive are those of the source. Calls come from the whole dose curve; as a rule, active = well fitted inhibition curve with a large enough effect; inconclusive = small, poorly fitted or top-dose-only effect; inactive = flat fitted curve, though single readings scatter.
OBSERVED_PROPERTY: Potency

These solved cases illustrate the format of a correct answer.
query: Given the compound C=CC(C)(C)[C@@]12C[C@H]3C(=O)N/C(=C\c4cnc[nH]4)C(=O)N3[C@@H]1Nc1ccccc12 , write its reported Potency.
result: inactive

query: Given the compound C=C(C)[C@H]1C(=O)c2c3c(cc4c5c(n1c24)[C@@]1(C)[C@@H](CC[C@H]2[C@](C)(/C=C/C=C(\C)C(=O)O)[C@@H](O)CC[C@@]21C)C5)C1=CC(C)(C)OC(C)(C)[C@H]1[C@@H]3O , write its reported Potency.
result: inactive

query: Given the compound CC[C@@H]1CN2CCC3(Nc4cccc(OC)c4C3=O)[C@@H]2C[C@@H]1/C(=C\OC)C(=O)OC (stereo partly specified) , write its reported Potency.
result: inactive

query: Given the compound C/C(=C\[C@H](C)C(=O)C[C@H](O)CC1CC(=O)NC(=O)C1)[C@@H]1OC(=O)/C=C/CC/C=C/C=C/[C@@H]1C , write its reported Potency.
result: 2430 nM (active)

query: Given the compound C/C=C/[C@@H]1[C@H]2C[C@@H](C)CC[C@@H]2C(C)=C[C@H]1C(=O)c1c(O)c(-c2ccc(O)cc2)c[nH]c1=O , write its reported Potency.
result: inactive

query: Given the compound CCCC[C@@H]1CC[C@H]2CCCC(CCCO)N12 (stereo partly specified) , write its reported Potency.
result: inactive

query: Given the compound CCCCC1CC[C@H]2CCCC(CCC)N12 (stereo partly specified) , write its reported Potency.
result: inactive

query: Given the compound CO[C@@]12c3c(C)cc(O)c4c(=O)occ(c34)C(=O)[C@@H]1[C@]13COC(=O)c4c(O)cc(C)c(c41)C(=O)[C@H]2[C@@H]3OC(C)=O , write its reported Potency.
result: inactive

query: Given the compound C1=C2CCCN[C@H]2C2CC1[C@H]1CCCCN1C2 (stereo partly specified) , write its reported Potency.
result: inactive

query: Given the compound CO[C@H]1C[C@H](O[C@H]2[C@@H](O)C[C@H](O[C@H]3CC[C@]4(C=O)[C@H]5CC[C@]6(C)C(C7=CC(=O)OC7)CC[C@]6(O)[C@@H]5CC[C@]4(O)C3)O[C@@H]2C)O[C@H](C)[C@H]1O[C@H]1C[C@@H](OC)[C@@H](O[C@@H]2O[C@H](CO)[C@@H](O)[C@H](O)[C@H]2O)[C@@H](C)O1 (stereo partly specified) , write its reported Potency.
result: 1530 nM (active)

Hey, quick one: what's Potency for each of these?
1. C=CC(C)(C)[C@@]12C[C@H]3C(=O)N/C(=C/c4cnc[nH]4)C(=O)N3[C@@H]1Nc1ccccc12
2. C/C=C1/CN2C3CC1C1=CCC(=O)N4c5ccccc5[C@@]3(C[C@@H]2C2=C[C@H]3C5CC6N(CC[C@@]67c6ccccc6N(C2=O)[C@@H]37)C/C5=C/C)[C@H]14 (stereo partly specified)
3. CCC(=O)N[C@@H](C[C@H](C)C(Cl)(Cl)Cl)C(=O)N1C(=O)C=C(OC)[C@@H]1C[C@H](C)C(Cl)Cl
4. C/C=C1/CN2CC[C@@]34c5ccccc5N(C)[C@@H]3[C@@H]2C[C@@H]1[C@H]4C(=O)OC
5. CO[C@H]1[C@H](O[C@H]2CC[C@]3(C=O)[C@H]4CC[C@]5(C)[C@@H](C6=CC(=O)OC6)CC[C@]5(O)[C@@H]4CC[C@]3(O)C2)O[C@H](C)[C@H](O)[C@@H]1OC
6. c1ccc2nc3c(cc2c1)[nH]c1ccccc13

result:
inactive
21700 nM (active)
inactive
inactive
685 nM (active)
inactive
